The values you see were collected from ChEMBL document CHEMBL6182845.

target-or-system: Polyprotein P1234 (Chikungunya virus (strain S27-African prototype) (CHIKV), UniProt Q8JUX6)
Sequence (Q8JUX6 536-1333 limits assumed): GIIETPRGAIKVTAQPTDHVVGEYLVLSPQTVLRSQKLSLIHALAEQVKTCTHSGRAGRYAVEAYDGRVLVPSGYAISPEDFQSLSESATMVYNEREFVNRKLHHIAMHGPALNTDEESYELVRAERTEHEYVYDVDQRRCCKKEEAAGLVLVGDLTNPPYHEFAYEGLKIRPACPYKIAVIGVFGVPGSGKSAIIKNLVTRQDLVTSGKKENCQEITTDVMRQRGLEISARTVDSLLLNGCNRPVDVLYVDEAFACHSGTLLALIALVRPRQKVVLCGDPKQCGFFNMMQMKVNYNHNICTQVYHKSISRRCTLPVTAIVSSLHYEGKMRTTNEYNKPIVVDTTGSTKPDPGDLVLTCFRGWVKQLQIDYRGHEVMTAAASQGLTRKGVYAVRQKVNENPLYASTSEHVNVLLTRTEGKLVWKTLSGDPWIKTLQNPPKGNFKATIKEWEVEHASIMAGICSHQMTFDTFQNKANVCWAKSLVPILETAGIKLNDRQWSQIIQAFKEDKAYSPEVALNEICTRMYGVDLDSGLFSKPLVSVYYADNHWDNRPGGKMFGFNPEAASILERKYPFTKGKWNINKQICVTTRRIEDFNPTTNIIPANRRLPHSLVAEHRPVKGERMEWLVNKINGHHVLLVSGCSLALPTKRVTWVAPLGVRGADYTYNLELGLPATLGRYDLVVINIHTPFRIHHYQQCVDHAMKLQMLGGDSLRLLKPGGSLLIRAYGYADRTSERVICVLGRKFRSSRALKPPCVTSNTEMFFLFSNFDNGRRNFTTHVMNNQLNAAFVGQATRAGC
method-description: Inhibition of CHIKV nsP2 protease by FRET assay
readout-label: pIC50
Schema: pIC50 number; meaning minus log10 of the concentration expressed in molar units.

# smiles-string, readout-label, measured-result
rows = [
    ("C=CC(=O)Nc1ccc(Br)cc1", "pIC50", 2.89),
]

Continue with the compound presented below.
INPUT: Consider the compound C=CC(=O)NCc1cccc(C(F)(F)F)c1 and give its measured pIC50.
OUTPUT: 2.89

====

target-or-system: Polyprotein P1234 (Chikungunya virus (strain S27-African prototype) (CHIKV))
method-description: Inhibition of CHIKV nsP2 protease at 1 mM by FRET assay relative to control
readout-label: inhibition

# smiles-string, inhibition
data = [
    ("C=CC(=O)N1CCN(C(=O)OC(C)(C)C)CC1", "< 40%"),
    ("C=CC(=O)Nc1ccc(I)cc1", "> 40%"),
    ("C=CC(=O)Nc1ccc(Br)cc1", "> 40%"),
]

INPUT: Record C=CC(=O)NCc1ccccc1 : what is its inhibition with Polyprotein P1234 (Chikungunya virus (strain S27-African prototype) (CHIKV))?
OUTPUT: < 40%

INPUT: Then what about the molecule C=CC(=O)N[C@@H](C)c1ccccc1 ?
OUTPUT: < 40%

INPUT: Then what about the molecule C=CC(=O)Nc1ccc(OC)c(OC(=O)C=C)c1 ?
OUTPUT: > 40%

INPUT: Then what about the molecule C=CC(=O)Nc1ccc(OC)cc1[N+](=O)[O-] ?
OUTPUT: > 40%

INPUT: Then what about the molecule C=CC(=O)NCc1ccc(C(C)(C)C)cc1 ?
OUTPUT: < 40%

INPUT: Then what about the molecule C=CC(=O)Nc1ccc(OC)c(O)c1 ?
OUTPUT: > 40%

INPUT: Then what about the molecule C=CC(=O)N(C(C)C)C1CCCCC1 ?
OUTPUT: < 40%

INPUT: Then what about the molecule C=CC(=O)N(C)Cc1ccccc1 ?
OUTPUT: < 40%

INPUT: Then what about the molecule C=CC(=O)Nc1cccc(C)c1C ?
OUTPUT: < 40%

INPUT: Then what about the molecule C=CC(=O)Nc1ccc([N+](=O)[O-])cc1 ?
OUTPUT: 100%

INPUT: Then what about the molecule C=CC(=O)Nc1ccc(OC)c(OC)c1 ?
OUTPUT: < 40%
